Provide the recorded apparent KD of MS2 coat protein for the entries that follow.
# Tested on: MS2 coat protein
# Run description: apparent KD of MS2 coat protein; higher = weaker reporter binding
# Condition label: Eterna round: R107; input ligand: tryptophan 2.4 mM
Numbers only, in nM.

sequence_data="CACAUGAGGAUCACCCAUGUCUGAACUGAAGGAGCGCUAAAUAAGGCAGGUAGGUCGCGGAAUCGUGUGUGCAUAUGCACACGCG [9.U]" measured_target="MS2 coat protein" endpoint_result=18
sequence_data="UCGUGUGUUUCGGAUACCAGUGAAAUCGAUACAUGAGGAUCACCCAUGUGAGAGGAUGUACACCCUUGGCAGCUGUCUGUAGCGG [asczmullin]" measured_target="MS2 coat protein" endpoint_result=38.3
sequence_data="UGUAUGGACUGAAGGAGCGCCUCAAAUAACAUGAGGAUCACCCAUGUGGACAAAGUCCUUGGGCAGGUAGGUCGCAGUCCAUACU [ArgBX 5 #StaticStem #MS2Late]" measured_target="MS2 coat protein" endpoint_result=82.2

Parameters: items (list). Returns: apparent KD of MS2 coat protein for each item.
1. AGGCAGUAGGUGAUCCACUGCCAAGGUGAUACCAGCAUCGAAAGAUGCCCUUGGCAGCACCAACAUGAGGAUCACCCAUGUAAUA [(MT)''-(M)'-(T')-(Theo)-(Ms2)_Design1/22_9]
2. UUAAUCAUGGAUGAAAACAUUUAUGCAGAAGGAGCGUGAUAAAACACAGGUAGGUCGCUGAAGGGAACAUGAGGAUCACCCAUGU [AstrosSSArgA#17]
3. CUCUGAGUGAGUAAUCACUCAGAGGCGGAUACCAGCGAGGUCCAUCGCCCUUGGCAGCCGAACAUGAGGAUCACCCAUGUCGGUA [#1 Same State - Theophylline A Attempt #24 (HarryS)]
4. AGUGUUAUAACUGAUACCAGACUUUUGCUUAUACAUGAGGAUCACCCAUGUAAAAUGGUUGUCCCUUGGCAGCAGAAAAUACACA [JR_SSTheophyB_Sub007]
5. UCCUCCUCCGCAAGGAGGAGGAGUUGCGAUACCAGCACGGAAACGUGCCCUUGGCAGCGCACAUGAGGAUCACCCAUGUCAUGUU [#1 Exclusion - Theophylline A Attempt #9 (HarryS)]
6. ACGAUAGCACCUGAGGAUCACCCAGGUGAUACCAGCCUGGAAACAGGCCCUUGGCAGCACCUAAAAUAAAGGUAACUAUCGAAUA [TheoAX6 #MicroSwitchBubble #AlternativeMS2]
7. GAUGAUAUUGCAGAUACCAGACACAUGAGGAUCACCCAUGUGUCCUCGCCAGCGGCAUGUGUCCCUUGGCAGCUGCGAUAUCAUC [Colombia]
8. AUGGUAGGACAGCACAUAUAAGCUUGUGAUACCAGCUAGAAAACUAGCCCUUGGCAGCACAUUACAUGAGGAUCACCCAUGUCCC [EThA NP+V+V2 #1]

Response:
99.2
41.3
11.7
134
16.3
48.6
12.1
50

Parameters: items (list). Returns: apparent KD of MS2 coat protein for each item.
1. GGUGGCUGGAUUGAUACCAGCCACCACCGAUAGACCACAUGAGGAUCACCCAUGUUGGGUGGCCCUUGGCAGCAGUCCAGCUGCC [#1 Same State - Theophylline B Attempt #9 (HarryS)]
2. GUAGCUGAGUGUGAUACCAGAAACGACGUCCUUUAUCAUAACAUGAGGAUCACCCAUGUCUUCCCUUGGCAGCACUUUUCGGUCU [theeternabot_exclusion_MS2_Theo_B_24]
3. AGAAUAUAAUAUAUCAAAGGUAUAACCGAAGGAGCGCCGAAUAAGGCAGGUAGGUCGCGGAAACAUGAGGAUCACCCAUGUCCAU [Arginine A Same State; Euphoria Solution 2]
4. AAUAACAUGAGGAUCACCCAUGUAAAAGAUACCAGAGUGAUGAUCCUCCCUUGGCAGCUUAACGCUGAUUGAUUACAAUCAGCGA [TheoAS 3 #Tail #MS2BeforeAptamer #BothOrNeither]
5. GGAAUAACGAUUGAUACCAGCAUGUUAACAUGAGGAUCACCCAUGUUAAGGAUAACAUAAUGCCCUUGGCAGCAACGGAAACCCG [#23Same State - Theophylline B]
6. UUCAGCUAGUCGGCCGCCACUACUUGAGGAUCACCCAAGUAAUCCUAACACUGCUUCGGCAGUGGUAGGACCGGGACUAGCUGAG
7. UCAGUGCAAGGAAGGAGCGGGUACAUGAGGAUCACCCAUGUGCAAGUGGUGAGCGUCCGUGCCCAGGUAGGUCGCCUAGCCUGGU [Quisso]

Response:
886
34.7
18.7
67.1
17.8
15.1
101

----------
# Tested on: MS2 coat protein
# Run description: apparent KD of MS2 coat protein; designed switch direction (-1 OFF switch, 1 ON switch): 1; higher = weaker reporter binding
# Condition label: input ligand: FMN 200 uM
Metric: apparent KD of MS2 coat protein (nM)
Give bare numbers, in nM.

Some solved entries appear below for comparison.
sequence_data="AAAUAAAUGACUCAGGAUAUAUCAUAGAAUACAUGAGGAUCACCCAUGUUUUAAUAACAUGUUUGGUAGAAGGGAGUCAAUAAAU [LROPPY Same State 2 - v05_deltaG=1.86] (Eterna round: R96, puzzle: Same State 2)" measurement_units=nM endpoint_result=25.2
sequence_data="GCCAUCGAAUGAGGAUAUGGCACCGUUUCGGUGCCAGAAGGCAUGUCAAUUGACAUGAGGAUCACCCAUGUAUUAUCGAUGGCA [JL Fiskers NG1ss - 33 mod 5] (Eterna round: R96, puzzle: Same State NG 1)" measurement_units=nM endpoint_result=119
sequence_data="UUAAUUAAUUAAUUAUACAUGAGGAUCACCCAUGUAAGUGAUCAGGAUAUCAGCUCGAUUAGAGCUGAGAAGGGAUACAUGAAU [SSNG3/12-A2] (Eterna round: R96, puzzle: Same State NG 3)" measurement_units=nM endpoint_result=94.4
sequence_data="CUGAGCGAUCAAGGAUAUCACGUCGUUUAGACGUGAGAAGGUGAUCAUAACAUGAGGAUCACCCAUGUAUUACAUGAAGCUCAG [SSNG1/2-A3] (Eterna round: R96, puzzle: Same State NG 1)" measurement_units=nM endpoint_result=208

Request: Returns the measured apparent KD of MS2 coat protein for the input sequence. Input: CCGGAUAAUGGAGGAUAUGGAGCCUUAUUGGCUCCAGAAGGCUAACAUGAGGAUCACCCAUGUAAUCCGGCGGUCAAUAGACCG [Eli NG1ss - 65] (Eterna round: R96, puzzle: Same State NG 1)
Response: 12

----------
# System: MS2 coat protein
# Run description: apparent KD of MS2 coat protein, switch OFF state (with FMN for OFF switches, without FMN for ON switches); designed switch direction (-1 OFF switch, 1 ON switch): 1; higher = weaker reporter binding
# Condition label: FMN input: 0 or 200 uM; Eterna round: R93 (includes R88 designs)
Metric: apparent KD of MS2 coat protein (nM)
Numbers only, in nM.

sequence_data="GAAAAACAUGAGGAUCACCCAUGUGAAAAUAUGGGAGGAUAUACGAAGUCGAAAGUCAGAGUAGAAGGCCUAAAAG [Garnet 33]" measured_target="MS2 coat protein" endpoint_result=73.3
sequence_data="AACAAUCUAUCUGAGGAUAUGUGUCAAAAGACAUGAGGAUCACCCAUGUAAAAACAUGAAAAAACACAGAAGGCAGAUAGAUUGA [SS2: 1148]" measured_target="MS2 coat protein" endpoint_result=59.3
sequence_data="AAAAAACAUGAGGAUCACCCAUGUAAAAAAAACACAGGAUAUCCCUUUUUUAAAUGGGAGGGAGAAGGGUGAAAAA [Nob's Hobby 12 - Jieux - Same State 1]" measured_target="MS2 coat protein" endpoint_result=29.3
sequence_data="AAGAAACAUGAGGAUCACCCAUGUACCCAAAAGCGAGGAUAUGGGAAAGAAAGAAAGAAACCAGAAGGCGCAUGAA [Darius II]" measured_target="MS2 coat protein" endpoint_result=35.5
sequence_data="AAGACACAUGAGGAUCACCCAUGUCAAGAGAGAUGAGGAUAUCUGAGUUAGUUAAGUUAAGGAGAAGGCAUGAAAA [LROPPY Same State 1 - v01_deltaG=3.81]" measured_target="MS2 coat protein" endpoint_result=59.4

Parameters: items (list). Returns: apparent KD of MS2 coat protein for each item.
1. AGAAGGUGGGUCGAGGAUAUCAGGCACGCCACAUGAGGAUCACCCAUGUUUUUGGCACCGCCCAAUGAGAAGGUGAACACCUUCA [Cesobe]
2. GGAUAACAUGAGGAUCACCCAUGUACAUGGGUACAAGGAUAUGUAAAAUAAAACAAACAAACAGAAGGUGUAAAAA [I'm in a state]
3. AAAAAACAUGAGGAUCACCCAUGUCUUCGGACAUGAGGAUAUGUACAGACUUCGGUCUGUACAGAAGGCAUGUAAA [SS1 - 1017]
4. GGGAGACAUGAGGAUCACCCAUGUGAAAACGUGUGAGGAUAUCUAUGGAAACCAUACUGUAGAGAAGGCACUUGUC [Servius Sulpicius Similis]
5. AAAAAACAUGAGGAUCACCCAUGUGCAAAAUUCGCAGGAUAUUCCUUUUUUAAAUGGGAGGGAGAAGGGUGUAAAA [Nob's Hobby 19 - Jieux - Same State 1]
6. GGUCGACAUGAGGAUCACCCAUGUAAGCCAAGGCAAGGAUAUGGGUAUAGGGUGCUAGGAUUAGAAGGUGCCAAAA [Soredige]
7. AAAUAAAUGACUCAGGAUAUAUCAUAGAAUACAUGAGGAUCACCCAUGUUUUAAUAACAUGUUUGGUAGAAGGGAGUCAAUAAAU [LROPPY Same State 2 - v05_deltaG=1.86]

Response:
1: 12.4; 2: 163; 3: 61.2; 4: 125; 5: 34.5; 6: 82.8; 7: 116
